subjectOfTest: KDM4C (Homo sapiens)
Construct: Full length of KDM5B and KDM4C protein were purchased from Active Motif; purchased Active Motif 31858
Sequence (Q9H3R0 whole entry): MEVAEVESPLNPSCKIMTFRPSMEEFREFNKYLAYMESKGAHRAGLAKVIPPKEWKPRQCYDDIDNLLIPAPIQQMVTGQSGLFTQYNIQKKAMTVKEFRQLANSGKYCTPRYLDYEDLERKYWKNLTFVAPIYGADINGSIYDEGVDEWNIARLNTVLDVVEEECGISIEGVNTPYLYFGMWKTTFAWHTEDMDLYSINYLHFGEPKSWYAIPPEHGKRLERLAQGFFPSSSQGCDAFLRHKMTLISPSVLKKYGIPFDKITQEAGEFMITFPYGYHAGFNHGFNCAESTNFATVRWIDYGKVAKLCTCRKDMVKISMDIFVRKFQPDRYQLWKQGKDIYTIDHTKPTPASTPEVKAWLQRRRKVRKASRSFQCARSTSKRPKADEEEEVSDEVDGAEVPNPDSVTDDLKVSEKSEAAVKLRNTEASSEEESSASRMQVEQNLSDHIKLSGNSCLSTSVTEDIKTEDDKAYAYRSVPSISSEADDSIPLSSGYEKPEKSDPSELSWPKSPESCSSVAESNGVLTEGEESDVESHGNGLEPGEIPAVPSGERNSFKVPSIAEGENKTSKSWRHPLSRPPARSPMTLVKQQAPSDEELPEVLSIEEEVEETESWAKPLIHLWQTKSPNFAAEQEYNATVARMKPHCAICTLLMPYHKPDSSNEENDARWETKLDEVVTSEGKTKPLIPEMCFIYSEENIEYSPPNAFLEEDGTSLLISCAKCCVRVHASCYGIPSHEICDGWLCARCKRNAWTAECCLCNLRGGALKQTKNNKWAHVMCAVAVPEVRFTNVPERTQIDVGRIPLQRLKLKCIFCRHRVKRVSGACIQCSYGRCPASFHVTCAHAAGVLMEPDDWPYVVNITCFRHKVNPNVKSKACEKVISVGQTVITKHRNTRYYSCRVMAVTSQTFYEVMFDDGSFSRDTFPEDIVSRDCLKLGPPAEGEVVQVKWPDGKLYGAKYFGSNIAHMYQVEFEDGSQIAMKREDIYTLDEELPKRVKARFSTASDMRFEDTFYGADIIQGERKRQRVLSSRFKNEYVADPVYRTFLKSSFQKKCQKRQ
assaySummary: KDM4C AlphaScreen assay
Format: biochemical
assayConditions: AlphaScreen; full length KDM4C 0.2 nM; biotinylated H3K9Me3 peptide 3 nM; 30 minutes at room temperature
pIC50: −log10 of the molar value.
Assign a class from recorded pIC50; defined classes: low-valued (below 5), mid-valued (5 to below 6), high-valued (6 or more)

> print(dat)
                                   compound          cat
1               Oc1nc(-c2cncs2)ncc1C(F)(F)F   mid-valued
2  CC(C)c1c(O)nc(-n2ccnc2)nc1-c1cnn(CC(=O)NCCN(CC(F)(F)F)C2CC2)c1   mid-valued
3  CC(C)c1c(O)nc(-n2ccnc2)nc1-c1cnn(CC(=O)NCCCN(C)C)c1  high-valued
4  CC(C)c1c(O)nc(-n2ccnc2)nc1OCC1CN(C(=O)OCc2ccccc2)CCN1 (stereo not drawn)   mid-valued

Turning now to a further record.
## Task Pick a category. Item: Cc1nc(-n2cnc(CO)c2)nc(O)c1C(C)C [Example 24b]
## Result low-valued

###

subjectOfTest: KDM4C (Homo sapiens)
Construct: Full length of KDM5B and KDM4C protein were purchased from Active Motif; purchased Active Motif 31858
assaySummary: KDM4C AlphaScreen assay
Type: biochemical
assayConditions: AlphaScreen; full length KDM4C 0.2 nM; biotinylated H3K9Me3 peptide 3 nM; 30 minutes at room temperature
Reported IC50 by item:
Just the number please, in µM, no unit attached.

## Task Quick one: IC50 for CC(C)c1c(O)nc(-n2ccnc2)nc1-c1cnn(C(C)(C)C)c1 [Example 75] ?
## Result 1.24

###

subjectOfTest: KDM4C (Homo sapiens)
Construct: Full length of KDM5B and KDM4C protein were purchased from Active Motif; purchased Active Motif 31858
assaySummary: KDM4C AlphaScreen assay
Format: biochemical
assayConditions: AlphaScreen; full length KDM4C 0.2 nM; biotinylated H3K9Me3 peptide 3 nM; 30 minutes at room temperature
Rule: measured IC50 below 2000 nM gets criterion met; anything equal to or greater than 2000 nM gets criterion not met.

> print(dat)
                                   compound                cat
1  CC(C)c1c(O)nc(-n2ccnc2)nc1-c1cnn(C(C)C)c1 [Example 1]      criterion met
2  CC(C)c1c(O)nc(-c2cncs2)nc1OCc1cccnc1 [Example 19]      criterion met
3  CC(C)c1c(O)nc(-n2ccnc2)nc1-c1ccccc1 [Example 83]  criterion not met
4  Cc1nc(-n2ccnc2N)nc(O)c1C(C)C [Example 23]      criterion met
5  CC(C)c1c(O)nc(-n2ccnc2)nc1OCC1COCCN1 (centres unmarked) [Example 126]      criterion met

## Task Please state whether IC50 is below 2000 nM for Cc1nc(-c2scnc2C(=O)NCc2ccccc2)nc(O)c1C(C)C [Example 150]
## Result criterion not met

## Task Please state whether IC50 is below 2000 nM for CC(C)c1c(O)nc(-n2ccnc2)nc1OCc1cccnc1 [Example 29]
## Result criterion met

## Task Please state whether IC50 is below 2000 nM for CC(C)c1c(O)nc(-n2ccnc2)nc1OCCN1CCNCC1 [Example 124]
## Result criterion met
